Reference source for all entries: paper doi:10.1101/2020.11.27.401307

# target_under_test: T1, LARP6C La-module (Arabidopsis thaliana, UniProt Q9LHL3 137-332)
# T1 sequence: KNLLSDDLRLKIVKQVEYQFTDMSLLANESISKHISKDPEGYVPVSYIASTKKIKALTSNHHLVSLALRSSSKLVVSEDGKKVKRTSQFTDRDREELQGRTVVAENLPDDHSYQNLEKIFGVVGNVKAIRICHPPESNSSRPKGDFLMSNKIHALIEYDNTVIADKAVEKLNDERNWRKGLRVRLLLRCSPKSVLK
# test_method_notes: ITC
property_label: pKd
Give bare numbers, as −log10 of the molar value.

# binder, pKd
records = [
    ("UCUCUCUGUUUCUUAUUCAUC (ssRNA) [B2]", 5.43),
]

Now let's try a different one.
Tell me measured pKd for CUUCUUUCUUUCUUUUUUGUU (ssRNA) [B1] please.
5.55
